Target: Tyrosinase (Homo sapiens, UniProt P14679)
Sequence (P14679 whole entry): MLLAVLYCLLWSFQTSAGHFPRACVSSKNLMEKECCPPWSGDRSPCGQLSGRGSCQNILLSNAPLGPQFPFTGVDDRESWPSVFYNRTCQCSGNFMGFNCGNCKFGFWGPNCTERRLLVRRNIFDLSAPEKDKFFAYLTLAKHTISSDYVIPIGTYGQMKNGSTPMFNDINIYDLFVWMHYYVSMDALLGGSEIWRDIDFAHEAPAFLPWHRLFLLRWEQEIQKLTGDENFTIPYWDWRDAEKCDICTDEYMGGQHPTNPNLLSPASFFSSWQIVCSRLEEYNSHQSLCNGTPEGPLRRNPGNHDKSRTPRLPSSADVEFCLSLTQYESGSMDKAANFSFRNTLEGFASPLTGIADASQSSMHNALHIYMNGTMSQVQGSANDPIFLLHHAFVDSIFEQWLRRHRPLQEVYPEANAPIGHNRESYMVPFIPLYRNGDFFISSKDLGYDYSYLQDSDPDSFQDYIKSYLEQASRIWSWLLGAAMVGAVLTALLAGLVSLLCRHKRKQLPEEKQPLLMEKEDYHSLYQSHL
Endpoint name: pIC50
Conceptually, pIC50 converts a concentration in mol/L into minus its log10.

# get_value(readout='pIC50', item= COc1ccccc1-c1cc(OC)c(O)c(OC)c1O[C@@H]1O[C@H](CO)[C@@H](O)[C@H](O)[C@H]1O [FORTUNEANOSIDE B] )
2.66

# get_value(readout='pIC50', item= COc1cc(-c2ccc(O[C@@H]3O[C@H](CO)[C@@H](O)[C@H](O)[C@H]3O)c(O)c2)cc(OC)c1O [FORTUNEANOSIDE E] )
3.85

# get_value(readout='pIC50', item= COc1cc(-c2ccccc2O[C@@H]2O[C@H](CO)[C@@H](O)[C@H](O)[C@H]2O)cc(OC)c1O [FORTUNEANOSIDE C] )
3.35

# get_value(readout='pIC50', item= COc1cc(-c2cccc(O[C@@H]3O[C@H](CO)[C@@H](O)[C@H](O)[C@H]3O)c2O)cc(OC)c1O [FORTUNEANOSIDE D] )
4.15
